Test: P. aeruginosa biofilm formation inhibitors, primary screen, strain PAO1, LB-PBS medium, absorbance 600 nm (AID 1176); also: test concentration not given here
Details: P. aeruginosa PAO1 growth/biofilm, A600, 12 h; higher = more signal
# z-score >= 0.7 gives condition met, anything below gives condition not met

Illustrative cases are given below, each with its answer.
compound	category-label
CN(C)CCCC[C@@H]1NC(=O)[C@H]2C[C@@H](C(=O)O)[C@@H](c3cccc(OCCO)c3)N2C1=O	condition not met
C=CCC(OC(C)=O)[C@@H]1[C@@H](N(Cc2cccc3ccccc23)C(=O)c2ccc(-c3ccccc3)cc2)c2cc(OCCCO)ccc2N1C(=O)c1ccc2ccccc2n1 (stereo partly specified)	condition not met
CCCC=C(CCC)[C@@H](NC(=O)c1ccccc1)c1ccc(C(=O)OC)cc1	condition met
COCCOC(=O)N1C(=O)[C@@]2(c3cc(C#Cc4ccc(OC)cc4)ccc31)[C@H](c1ccc(OCCO)cc1)N1[C@H](c3ccccc3)[C@H](c3ccccc3)OC(=O)[C@H]1[C@@H]2C(=O)N1CCCCCCC1	condition met

(Q) Could you tell me if the measured z-score of COCCOC(=O)N1C(=O)[C@@]2(c3cc(C#CCCO)ccc31)[C@H](c1ccccc1OCCO)N1[C@H](c3ccccc3)[C@H](c3ccccc3)OC(=O)[C@H]1[C@@H]2C(=O)N1CCc2cc(OC)c(OC)cc2C1 reaches 0.7 or more?
(A) condition met

###

Assay: binders of probe aHhip on microarray, primary screen, stem cell growth factor project, biochemical, small-molecule microarray, fluorescence 635/667 (AID 1087);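 also: score merges spot fluorescence at 667nm with spot signal to noise ratio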
Conditions: higher = more signal
# composite z-score >= 0.1 gives criterion met, anything below gives criterion not met

Illustrative cases are given below, each with its answer.
smiles-string	category-label
COc1cccc(C[C@H]2C[C@@H](CO[Si](C(C)C)(C(C)C)C(C)C)N3C(=O)[C@@]4(C(C)=O)O[C@@]23[C@@H]2C(=O)N(C)C(=O)[C@@H]24)c1	criterion met
CCOC(=O)C[C@H]1[C@H](OC(=O)c2ccc(-c3ccccc3)cc2)[C@@H](NC(=O)CC(C)C)c2cc(OCCCO)ccc2N1C(=O)Cc1ccc(OC)cc1	criterion met
C=C(COC)C(=O)CC[C@@H](OC(C)=O)c1ccc(OCCO)cc1	criterion met

(Q) Could you tell me if the measured composite z-score of COCCOC(=O)N1C(=O)[C@@]2(c3ccccc31)[C@H](c1ccc(OCCO)cc1)N1[C@H](c3ccccc3)[C@H](c3ccccc3)OC(=O)[C@H]1[C@@H]2C(=O)N1CCN(c2ncccn2)CC1 reaches 0.1 or more?
(A) criterion met

(Q) Could you tell me if the measured composite z-score of COC(=O)[C@@]1(CCC(=O)OC(C)(C)C)N=C(c2ccc(OCCCO)cc2)O[C@H]1c1ccccc1CN=[N+]=[N-] reaches 0.1 or more?
(A) criterion met

(Q) Could you tell me if the measured composite z-score of Cc1ccc(S[C@]2(C(=O)NCC(F)(F)F)CC(=O)N(C3CCCCC3)[C@@H]2c2ccc(CO)cc2)cc1 reaches 0.1 or more?
(A) criterion not met

(Q) Could you tell me if the measured composite z-score of NCCCC[C@@H]1NC(=O)[C@H]2C[C@@H](C(=O)O)[C@@H](c3cccc(OCCO)c3)N2C1=O reaches 0.1 or more?
(A) criterion not met

###

Experiment: CREB reporter modulators under forskolin, primary screen, cell-based, PC12, CRE-LacZ reporter, forskolin-stimulated (AID 1146);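 also: PC12 cells with 6xCRE LacZ reporter stimulated by forskolin 10 µM; beta-galactosidase reporter signal reflecting CREB driven transcription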
Conditions: luminescence, 4.5 h, higher = more signal, called active from +8 up or from −8 down
quantity-name: z-score
Enter the number alone.

(Q) Check the records and state z-score for COC(=O)[C@@]1(Cc2ccc(F)cc2)[C@H]2c3cc(C(=O)N(C)C)n(CCN4CCOCC4)c3C[C@H]2CN1C(=O)c1ccccc1
(A) 0.823
